Molecular target: TRPA1 receptor (Homo sapiens, UniProt O75762);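 also: values above 100 mean more active than the control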
Construct: expressed in transfected cells; host or cells: HEK cell line
Sequence (O75762 whole entry): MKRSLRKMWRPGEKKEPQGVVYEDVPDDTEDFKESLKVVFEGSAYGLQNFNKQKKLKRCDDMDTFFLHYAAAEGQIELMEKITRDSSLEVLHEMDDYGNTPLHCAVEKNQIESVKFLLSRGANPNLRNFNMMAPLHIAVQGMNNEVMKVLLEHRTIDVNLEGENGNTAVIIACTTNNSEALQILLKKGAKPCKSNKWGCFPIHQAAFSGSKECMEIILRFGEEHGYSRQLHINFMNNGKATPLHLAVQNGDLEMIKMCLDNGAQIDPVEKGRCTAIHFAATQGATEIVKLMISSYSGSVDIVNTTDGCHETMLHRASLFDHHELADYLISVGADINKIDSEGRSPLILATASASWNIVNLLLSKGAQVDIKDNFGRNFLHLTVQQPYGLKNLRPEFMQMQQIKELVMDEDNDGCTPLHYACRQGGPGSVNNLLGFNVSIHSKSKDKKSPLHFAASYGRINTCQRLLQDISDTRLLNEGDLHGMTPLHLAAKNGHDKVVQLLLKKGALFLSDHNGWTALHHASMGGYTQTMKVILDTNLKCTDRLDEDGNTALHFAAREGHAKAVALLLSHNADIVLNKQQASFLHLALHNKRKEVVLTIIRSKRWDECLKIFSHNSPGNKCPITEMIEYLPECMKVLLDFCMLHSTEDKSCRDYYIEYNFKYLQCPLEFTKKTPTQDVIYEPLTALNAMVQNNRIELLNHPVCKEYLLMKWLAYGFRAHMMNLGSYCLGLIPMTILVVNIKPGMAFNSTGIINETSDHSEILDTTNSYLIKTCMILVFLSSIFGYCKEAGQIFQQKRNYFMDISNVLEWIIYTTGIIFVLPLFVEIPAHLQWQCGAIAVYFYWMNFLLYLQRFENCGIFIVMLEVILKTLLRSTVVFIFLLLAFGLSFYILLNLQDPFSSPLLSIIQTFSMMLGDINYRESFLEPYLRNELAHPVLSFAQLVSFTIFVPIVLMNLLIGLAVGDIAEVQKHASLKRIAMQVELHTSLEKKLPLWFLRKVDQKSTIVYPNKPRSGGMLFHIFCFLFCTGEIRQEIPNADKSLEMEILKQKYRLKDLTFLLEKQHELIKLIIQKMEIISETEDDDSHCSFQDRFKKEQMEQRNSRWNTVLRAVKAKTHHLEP
Experiment: cell-based
Design: dose or concentration left out as unconfirmed
Conditions: HEK293; percentage of the control (allyl isothiocyanate) calcium count; material dissolved in DMSO at 100 micromolar; HEK cells with TRPA1; pre-incubation; read-out: TRPA1 Pre-incubation
Where a name gives a salt, the structure may show the parent alone. Residues, ends and D or L forms follow the SMILES beside them.
activation of 60% or higher: fulfilled. Under 60%: not fulfilled.

compound: CC(C)=CCCC(C)CCOC=O (centres unmarked) [Citronellyl Formate]
systemTested: TRPA1 receptor (Homo sapiens, UniProt O75762);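 also: values above 100 mean more active than the control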
category: fulfilled
//
compound: CCCCCCC(C)=O
systemTested: TRPA1 receptor (Homo sapiens, UniProt O75762);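 also: values above 100 mean more active than the control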
category: fulfilled
//
compound: CC(C)=CC=O
systemTested: TRPA1 receptor (Homo sapiens, UniProt O75762);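 also: values above 100 mean more active than the control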
category: fulfilled
//
compound: CCCCCOC(=O)CCC [Amyl Butyrate]
systemTested: TRPA1 receptor (Homo sapiens, UniProt O75762);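 also: values above 100 mean more active than the control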
category: fulfilled
//
compound: CC(=O)OCC=Cc1ccccc1 [Cinnamyl Acetate]
systemTested: TRPA1 receptor (Homo sapiens, UniProt O75762);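 also: values above 100 mean more active than the control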
category: fulfilled
//
compound: CC(=O)OCCC(C)C [Isoamyl Acetate]
systemTested: TRPA1 receptor (Homo sapiens, UniProt O75762);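 also: values above 100 mean more active than the control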
category: not fulfilled
//
compound: CC(C)C(=O)OCCc1ccccc1 [Phenylethyl Isobutyrate]
systemTested: TRPA1 receptor (Homo sapiens, UniProt O75762);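 also: values above 100 mean more active than the control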
category: fulfilled
//
compound: COc1nccnc1C
systemTested: TRPA1 receptor (Homo sapiens, UniProt O75762);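 also: values above 100 mean more active than the control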
category: fulfilled
//
compound: COC(=O)/C=C/c1ccccc1 [Methyl trans-Cinnamate]
systemTested: TRPA1 receptor (Homo sapiens, UniProt O75762);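 also: values above 100 mean more active than the control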
category: fulfilled
//
compound: CC(C)C(=O)OCCOc1ccccc1 [Phenoxyethyl Isobutyrate]
systemTested: TRPA1 receptor (Homo sapiens, UniProt O75762);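 also: values above 100 mean more active than the control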
category: not fulfilled
//
compound: O=Cc1ccccc1
systemTested: TRPA1 receptor (Homo sapiens, UniProt O75762);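 also: values above 100 mean more active than the control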
category: fulfilled
//
compound: COc1cc(/C=C/C(=O)O)ccc1O [Trans-Ferulic Acid]
systemTested: TRPA1 receptor (Homo sapiens, UniProt O75762);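 also: values above 100 mean more active than the control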
category: fulfilled
//
compound: COC(=O)[C@H](Cc1ccccc1)NC(=O)[C@@H](N)CC(=O)O [Aspartame] (H-Asp-Phe-OMe)
systemTested: TRPA1 receptor (Homo sapiens, UniProt O75762);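 also: values above 100 mean more active than the control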
category: fulfilled
//
compound: CCCC/C=C/C=O [trans-2-Heptenal]
systemTested: TRPA1 receptor (Homo sapiens, UniProt O75762);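 also: values above 100 mean more active than the control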
category: not fulfilled
//
compound: CCCCCC(=Cc1ccccc1)C(OC)OC
systemTested: TRPA1 receptor (Homo sapiens, UniProt O75762);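 also: values above 100 mean more active than the control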
category: not fulfilled
//
compound: CCCCCCCCCC(C)=O
systemTested: TRPA1 receptor (Homo sapiens, UniProt O75762);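 also: values above 100 mean more active than the control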
category: fulfilled
//
compound: O=C(C=Cc1ccccc1)OCc1ccccc1 [Benzyl Cinnamate]
systemTested: TRPA1 receptor (Homo sapiens, UniProt O75762);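 also: values above 100 mean more active than the control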
category: fulfilled
//
compound: CC(=O)C(C)O (centres unmarked)
systemTested: TRPA1 receptor (Homo sapiens, UniProt O75762);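 also: values above 100 mean more active than the control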
category: fulfilled
//
compound: O=Cc1ccco1
systemTested: TRPA1 receptor (Homo sapiens, UniProt O75762);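 also: values above 100 mean more active than the control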
category: fulfilled
//
compound: CC(=O)OCCc1ccccc1 [Phenylethyl Acetate]
systemTested: TRPA1 receptor (Homo sapiens, UniProt O75762);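 also: values above 100 mean more active than the control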
category: fulfilled
